Target: PRMT5/MEP50 complex (Homo sapiens, UniProt O14744)
Sequence (O14744 whole entry, the tested form may be a part): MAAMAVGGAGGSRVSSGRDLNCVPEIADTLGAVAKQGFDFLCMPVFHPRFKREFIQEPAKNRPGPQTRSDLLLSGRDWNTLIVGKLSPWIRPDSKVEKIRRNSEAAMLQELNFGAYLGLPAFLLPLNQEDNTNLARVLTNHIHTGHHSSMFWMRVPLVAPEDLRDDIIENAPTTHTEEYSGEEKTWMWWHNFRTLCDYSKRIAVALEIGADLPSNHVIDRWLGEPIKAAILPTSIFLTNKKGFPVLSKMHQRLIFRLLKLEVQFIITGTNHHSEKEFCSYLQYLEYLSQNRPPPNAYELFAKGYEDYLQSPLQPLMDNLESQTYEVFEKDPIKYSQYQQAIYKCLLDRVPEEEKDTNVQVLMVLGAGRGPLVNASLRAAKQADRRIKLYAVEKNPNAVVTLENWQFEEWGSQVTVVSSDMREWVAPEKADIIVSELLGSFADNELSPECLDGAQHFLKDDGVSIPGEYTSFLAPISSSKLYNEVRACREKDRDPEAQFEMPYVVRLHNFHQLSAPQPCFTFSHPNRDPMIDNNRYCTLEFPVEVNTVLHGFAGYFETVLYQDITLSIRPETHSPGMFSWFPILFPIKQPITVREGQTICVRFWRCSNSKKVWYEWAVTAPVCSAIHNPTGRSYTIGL
Sequence (Q9BQA1 whole entry, further chain, the tested form may be a part): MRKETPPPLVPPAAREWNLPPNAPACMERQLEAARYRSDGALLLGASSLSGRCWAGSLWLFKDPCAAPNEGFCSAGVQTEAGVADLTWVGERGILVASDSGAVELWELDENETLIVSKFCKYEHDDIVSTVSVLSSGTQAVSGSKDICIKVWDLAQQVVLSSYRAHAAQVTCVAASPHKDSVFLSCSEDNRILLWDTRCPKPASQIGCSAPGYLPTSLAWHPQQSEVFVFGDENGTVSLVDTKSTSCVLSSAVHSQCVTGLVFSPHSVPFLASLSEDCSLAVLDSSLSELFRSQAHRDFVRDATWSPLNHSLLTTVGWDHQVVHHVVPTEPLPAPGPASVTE
Test: Inhibition of recombinant human fetal brain FLAG-tagged PRMT5/full length human testis 6His-tagged MEP50 expressed in baculovirus infected insect Sf9 cells using human histone H4 (1 to 15 residues) as substrate preincubated for 30 mins followed by [3H]-SAM addition
pIC50: −log10 of the molar value.
The following compounds are listed with their measured pIC50 values.

[
  {
    "Compound": "CS(=O)(=O)Nc1ccc(C(=O)NCC(O)CN2CCc3ccccc3C2)cc1 (stereo not given)",
    "Result": "6.00 to 7.00"
  },
  {
    "Compound": "O=C(COc1c(CN2CCOCC2)ccc2cccnc12)NC[C@H](O)CN1CCc2ccccc2C1",
    "Result": "> 7.00"
  },
  {
    "Compound": "O=C(c1ccc(Cn2ccc(-c3ccc(OCC(O)CN4CCc5ccccc5C4)cc3)n2)cc1)N1CCCC1 (stereo not given)",
    "Result": "5.00 to 6.00"
  },
  {
    "Compound": "O=C(NC[C@H](O)CN1CCc2ccccc2C1)Oc1ccccc1",
    "Result": "5.00 to 6.00"
  }
]

# context switch: different compound, same pIC50
# pIC50 of Cn1cnc2nc(-c3cccc(OCC(O)CN4CCc5ccccc5C4)c3)ncc21 (stereo not given) = 5.00 to 6.00

----------
Biological target: Protein arginine N-methyltransferase 5 (Homo sapiens, UniProt O14744)
Assay: Inhibition of PRMT5 in human Z138 cells assessed as decrease in di-methyl arginine levels after 96 hrs by Western blot method
The following molecules are listed with their measured EC50 values.

Worked cases, answers included:
[
  {
    "Molecule": "COC(COc1cccc(CNC2CCCC2)c1)CN1CCc2ccccc2C1 (stereo not given)",
    "Result": "> 20000 nM"
  },
  {
    "Molecule": "Cc1ccccc1N1CCN(CC(O)CN2CCc3ccccc3C2)C(=O)C1 (stereo not given)",
    "Result": "> 50000 nM"
  },
  {
    "Molecule": "CS(=O)(=O)c1ccc(-c2cccc(OCC(O)CN3CCc4ccccc4C3)c2)cc1 (stereo not given)",
    "Result": "1000 to 10000 nM"
  }
]

# EC50 of O=C(NCC(O)CN1Cc2ccccc2C1)c1cccc(-c2ccccn2)c1 (stereo not given) = 1000 to 10000 nM

# EC50 of COc1ccc(Cn2cnc3ccc(-c4cccc(OCC(O)CN5CCc6ccccc6C5)c4)cc32)cc1 (stereo not given) = 1000 to 10000 nM

# EC50 of CN1CCC(c2cccc(C(=O)NCC(O)CN3CCc4ccccc4C3)c2)C1 (stereo not given) = 101 to 1000 nM

# EC50 of CC(Oc1ccccc1S(C)(=O)=O)C(=O)NCC(O)CN1CCc2ccccc2C1 (stereo not given) = 1000 to 10000 nM

# EC50 of O=C1CN(c2cccc(F)c2)CCN1CC(O)CN1CCc2ccccc2C1 (stereo not given) = 101 to 1000 nM

# EC50 of OC(COc1cccc(-c2cccc3[nH]cnc23)c1)CN1CCc2ccccc2C1 (stereo not given) = 101 to 1000 nM

# EC50 of O=C1CN(c2cccc3cccnc23)CCN1CC(O)CN1CCc2ccccc2C1 (stereo not given) = 101 to 1000 nM

----------
The following compounds are listed with their measured EC50 values.
Biological target: Protein arginine N-methyltransferase 5 (Homo sapiens)
Test: Inhibition of PRMT5 in human Z138 cells assessed as decrease in di-methyl arginine levels after 96 hrs by Western blot method

Worked cases, answers included:
[
  {
    "Compound": "COc1ccc(OCC(=O)NCC(O)CN2CCc3ccccc3C2)cc1 (stereo not given)",
    "Assayed system": "Protein arginine N-methyltransferase 5 (Homo sapiens)",
    "EC50": "101 to 1000 nM"
  },
  {
    "Compound": "O=C(COc1ccc2cnn(C3CCNCC3)c2c1)NCC(O)CN1CCc2ccccc2C1 (stereo not given)",
    "Assayed system": "Protein arginine N-methyltransferase 5 (Homo sapiens)",
    "EC50": "101 to 1000 nM"
  },
  {
    "Compound": "O=C1COc2ccccc2N1CC(O)CN1CCc2ccccc2C1 (stereo not given)",
    "Assayed system": "Protein arginine N-methyltransferase 5 (Homo sapiens)",
    "EC50": "101 to 1000 nM"
  },
  {
    "Compound": "O=C(c1cccc(-c2cccc(OCC(O)CN3CCc4ccccc4C3)c2)c1)N1CCCC1 (stereo not given)",
    "Assayed system": "Protein arginine N-methyltransferase 5 (Homo sapiens)",
    "EC50": "1000 to 10000 nM"
  },
  {
    "Compound": "OC(CNc1cc(-c2ncc3ccn(C4CCNCC4)c3n2)ccn1)CN1CCc2ccccc2C1 (stereo not given)",
    "Assayed system": "Protein arginine N-methyltransferase 5 (Homo sapiens)",
    "EC50": "< 100 nM"
  },
  {
    "Compound": "Cn1cnc2ccc(-c3cncc(NCC(O)CN4CCc5ccccc5C4)c3)cc21 (stereo not given)",
    "Assayed system": "Protein arginine N-methyltransferase 5 (Homo sapiens)",
    "EC50": "< 100 nM"
  }
]

# EC50 of CN(C)c1ccc(OCC(=O)NCC(O)CN2CCc3ccccc3C2)cc1 (stereo not given) = 101 to 1000 nM

# EC50 of CNC(=O)Cn1cnc2ccc(-c3cccc(OCC(O)CN4CCc5ccccc5C4)c3)cc21 (stereo not given) = 1000 to 10000 nM

# EC50 of CS(=O)(=O)c1ccccc1OCC(=O)NCC(O)CN1Cc2ccccc2C1 (stereo not given) = 101 to 1000 nM

# EC50 of Cn1cnc2cc(OCC(=O)NCC(O)CN3CCc4ccccc4C3)ccc21 (stereo not given) = 101 to 1000 nM

----------
Target: Protein arginine N-methyltransferase 5 (Homo sapiens)
Assay: Inhibition of PRMT5 in human Z138 cells assessed as decrease in di-methyl arginine levels after 96 hrs by Western blot method
Type: cell-based
Endpoint label: EC50

[
  {
    "Compound": "CNS(=O)(=O)c1ccccc1OCC(=O)NCC(O)CN1CCc2ccccc2C1 (stereo unspecified)",
    "EC50": "101 to 1000 nM"
  },
  {
    "Compound": "CN(C)c1ccc2cccc(OCC(=O)NC[C@H](O)CN3CCc4ccccc4C3)c2n1",
    "EC50": "1000 to 10000 nM"
  }
]

# EC50 of Cn1nccc1C(=O)Nc1cccc(OCC(O)CN2CCc3ccccc3C2)c1 (stereo unspecified) = 1000 to 10000 nM

# EC50 of CN(C)c1cccc(OCC(=O)NCC(O)CN2CCc3ccccc3C2)c1 (stereo unspecified) = 101 to 1000 nM

# EC50 of OC(COc1cccc(-c2ccc(C(F)(F)F)cc2Cl)c1)CN1CCc2ccccc2C1 (stereo unspecified) = 10000 to 40000 nM

----------
Target: PRMT5/MEP50 complex (Homo sapiens, UniProt O14744)
Experiment: Inhibition of recombinant human fetal brain FLAG-tagged PRMT5/full length human testis 6His-tagged MEP50 expressed in baculovirus infected insect Sf9 cells using human histone H4 (1 to 15 residues) as substrate preincubated for 30 mins followed by [3H]-SAM addition
pIC50: −log10 of the molar value.
Endpoint label: pIC50

[
  {
    "Compound": "O=C(NCC(O)CN1CCc2ccccc2C1)c1ccccn1 (configuration not stated)",
    "Endpoint label": "pIC50",
    "Result": "6.00 to 7.00"
  }
]

# context switch: different compound, same pIC50
Form: item O=C(Cc1ccccc1)NC[C@@H](O)CN1CCc2ccccc2C1 ; test system PRMT5/MEP50 complex (Homo sapiens, UniProt O14744); pIC50: 4.30 to 5.00

----------
Target: PRMT5/MEP50 complex (Homo sapiens, UniProt O14744)
Assay: Inhibition of recombinant human fetal brain FLAG-tagged PRMT5/full length human testis 6His-tagged MEP50 expressed in baculovirus infected insect Sf9 cells using human histone H4 (1 to 15 residues) as substrate preincubated for 30 mins followed by [3H]-SAM addition
The following compounds are listed with their measured IC50 values.

Worked cases, answers included:
[
  {
    "Compound": "O=C1CC(c2ccccc2)CCN1C[C@@H](O)CN1CCc2ccccc2C1 (stereo partly drawn)",
    "Result": "1 to 10 µM"
  },
  {
    "Compound": "CC(C)(Oc1cccc2cccnc12)C(=O)NCC(O)CN1CCc2ccccc2C1 (stereo not drawn)",
    "Result": "< 0.1 µM"
  },
  {
    "Compound": "CC(=O)Nc1cccc(OCC(=O)NCC(O)CN2CCc3ccccc3C2)c1 (stereo not drawn)",
    "Result": "1 to 10 µM"
  }
]

# IC50 of O=C(COc1ccccc1C1CNC1)NCC(O)CN1CCc2ccccc2C1 (stereo not drawn) = 1 to 10 µM

# IC50 of CC(=O)Nc1ccccc1OCC(=O)NCC(O)CN1CCc2ccccc2C1 (stereo not drawn) = 0.101 to 1 µM
